Exercise: for every item that follows, state its recorded melting point.
Where a name gives a salt, the structure may show the parent alone.
Unit °C implied. Number only.

Would you mind telling me what melting point value was observed for CN(C)CCC(O)(c1ccccc1)c1cc(Br)cc2cc(Cc3ccccc3)c(OCCN3CCCCC3)nc12 (stereo not drawn) ?
131

Would you mind telling me what melting point value was observed for COc1nc2ccccc2c(CC(O)(CCN(C)C)c2cccc(F)c2)c1Cc1ccccc1 (stereo not drawn) ?
123

Would you mind telling me what melting point value was observed for COc1nc2c(C(O)(CCN(C)C)c3cc(F)cc(F)c3)cc(-c3cccnc3)cc2cc1-c1ccccc1 (stereo not drawn) (as salt: salt) ?
156
